system: Streptococcus pyogenes; assay: In vitro minimum inhibitory concentration against Streptococcus pyogenes EES61 using standard agar dilution method; type: functional
MIC values, listed per item

Q) Data request, read-out MIC, for CC[C@H]1OC(=O)[C@H](C)[C@@H](O[C@H]2C[C@@](C)(OC)[C@@H](O)[C@H](C)O2)[C@H](C)[C@@H](O[C@@H]2O[C@H](C)C[C@H](N(C)C)[C@H]2O)[C@@](C)(OC/C=N/NC)C[C@@H](C)C(=O)[C@H](C)[C@@H](O)[C@]1(C)O
A) 0.06 µg/mL

---

test system: Streptococcus pyogenes; test: In vitro minimum inhibitory concentration against Streptococcus pyogenes EES61 using standard agar dilution method; assay type: functional
MIC values, listed per item
Quick reminder: number only, in µg/mL, skip the unit.

>  <compound>
CC[C@H]1OC(=O)[C@H](C)[C@@H](O[C@H]2C[C@@](C)(OC)[C@@H](O)[C@H](C)O2)[C@H](C)[C@@H](O[C@@H]2O[C@H](C)C[C@H](N(C)C)[C@H]2O)[C@@](C)(OC/C=C/c2cccc3ccccc23)C[C@@H](C)C(=O)[C@H](C)[C@@H](O)[C@]1(C)O

>  <assayed-target>
Streptococcus pyogenes

>  <number>
0.06

$$$$
>  <compound>
CC[C@H]1OC(=O)[C@H](C)[C@@H](O[C@H]2C[C@@](C)(OC)[C@@H](O)[C@H](C)O2)[C@H](C)[C@@H](O[C@@H]2O[C@H](C)C[C@H](N(C)C)[C@H]2O)[C@@](C)(OCCNCCCc2ccccc2)C[C@@H](C)C(=O)[C@H](C)[C@@H](O)[C@]1(C)O

>  <assayed-target>
Streptococcus pyogenes

>  <number>
0.03

$$$$
>  <compound>
CC[C@H]1OC(=O)[C@H](C)[C@@H](O[C@H]2C[C@@](C)(OC)[C@@H](O)[C@H](C)O2)[C@H](C)[C@@H](O[C@@H]2O[C@H](C)C[C@H](N(C)C)[C@H]2O)[C@@](C)(OC/C=C/c2ccccc2)C[C@@H](C)C(=O)[C@H](C)[C@@H](O)[C@]1(C)O

>  <assayed-target>
Streptococcus pyogenes

>  <number>
0.03

$$$$

Q) Data request, read-out MIC, for CC[C@H]1OC(=O)[C@H](C)[C@@H](O[C@H]2C[C@@](C)(OC)[C@@H](O)[C@H](C)O2)[C@H](C)[C@@H](O[C@@H]2O[C@H](C)C[C@H](N(C)C)[C@H]2O)[C@@](C)(OCC(O)CNCCc2ccccc2)C[C@@H](C)C(=O)[C@H](C)[C@@H](O)[C@]1(C)O (some centres undefined)
A) 0.03

---

system: Streptococcus pneumoniae; assay: In vitro minimum inhibitory concentration against Streptococcus pneumoniae 5737.; type: functional
MIC values, listed per item
Quick reminder: number only, in µg/mL, skip the unit.

// worked examples, MIC included
>  <compound-smiles>
CC[C@H]1OC(=O)[C@H](C)[C@@H](O[C@H]2C[C@@](C)(OC)[C@@H](O)[C@H](C)O2)[C@H](C)[C@@H](O[C@@H]2O[C@H](C)C[C@H](N(C)C)[C@H]2O)[C@@](C)(OCc2ccc(F)cc2)C[C@@H](C)C(=O)[C@H](C)[C@@H](O)[C@]1(C)O

>  <assayed-target>
Streptococcus pneumoniae

>  <MIC [µg/mL]>
8

$$$$
>  <compound-smiles>
CC[C@H]1OC(=O)[C@H](C)[C@@H](O[C@H]2C[C@@](C)(OC)[C@@H](O)[C@H](C)O2)[C@H](C)[C@@H](O[C@@H]2O[C@H](C)C[C@H](N(C)C)[C@H]2O)[C@@](C)(OCCNCCc2ccccc2)C[C@@H](C)C(=O)[C@H](C)[C@@H](O)[C@]1(C)O

>  <assayed-target>
Streptococcus pneumoniae

>  <MIC [µg/mL]>
64

$$$$
>  <compound-smiles>
CC[C@H]1OC(=O)[C@H](C)[C@@H](O[C@H]2C[C@@](C)(OC)[C@@H](O)[C@H](C)O2)[C@H](C)[C@@H](O[C@@H]2O[C@H](C)C[C@H](N(C)C)[C@H]2O)[C@@](C)(OC/C=C/c2cccc3ccccc23)C[C@@H](C)C(=O)[C@H](C)[C@@H](O)[C@]1(C)O

>  <assayed-target>
Streptococcus pneumoniae

>  <MIC [µg/mL]>
8

$$$$

Consider now this further compound.
Q) Data request, read-out MIC, for CC[C@H]1OC(=O)[C@H](C)[C@@H](O[C@H]2C[C@@](C)(OC)[C@@H](O)[C@H](C)O2)[C@H](C)[C@@H](O[C@@H]2O[C@H](C)C[C@H](N(C)C)[C@H]2O)[C@@](C)(OC/C=C/c2cnc3ccccc3c2)C[C@@H](C)C(=O)[C@H](C)[C@@H](O)[C@]1(C)O
A) 128

---

test system: Streptococcus pneumoniae; assay: In vitro minimum inhibitory concentration against Streptococcus pneumoniae 5737.; type: functional
MIC values, listed per item
Quick reminder: number only, in µg/mL, skip the unit.

>  <molecule>
CC[C@H]1OC(=O)[C@H](C)[C@@H](O[C@H]2C[C@@](C)(OC)[C@@H](O)[C@H](C)O2)[C@H](C)[C@@H](O[C@@H]2O[C@H](C)C[C@H](N(C)C)[C@H]2O)[C@@](C)(OCc2ccccc2)C[C@@H](C)C(=O)[C@H](C)[C@@H](O)[C@]1(C)O

>  <assayed-target>
Streptococcus pneumoniae

>  <unit-symbol>
µg/mL

>  <MIC>
64

$$$$

Consider now this further molecule.
Q) Data request, read-out MIC, for CC[C@H]1OC(=O)C(C)[C@@H](O[C@H]2C[C@@](C)(OC)[C@@H](O)[C@H](C)O2)[C@H](C)[C@@H](O[C@@H]2O[C@H](C)C[C@H](N(C)C)[C@H]2O)[C@@](C)(OC/C=N/Oc2ccccc2)C[C@@H](C)C(=O)[C@H](C)[C@@H](O)[C@]1(C)O (single isomer, unassigned)
A) 128

---

MIC values, listed per item
test system: Streptococcus pyogenes; assay: In vitro minimum inhibitory concentration against Streptococcus pyogenes EES61 using standard agar dilution method; assay type: functional
Quick reminder: number only, in mg/L, skip the unit.

Q) Data request, read-out MIC, for CC[C@H]1OC(=O)[C@H](C)[C@@H](O[C@H]2C[C@@](C)(OC)[C@@H](O)[C@H](C)O2)[C@H](C)[C@@H](O[C@@H]2O[C@H](C)C[C@H](N(C)C)[C@H]2O)[C@@](C)(OCC=O)C[C@@H](C)C(=O)[C@H](C)[C@@H](O)[C@]1(C)O
A) 0.06

Q) # repeat for CC[C@H]1OC(=O)[C@H](C)[C@@H](O[C@H]2C[C@@](C)(OC)[C@@H](O)[C@H](C)O2)[C@H](C)[C@@H](O[C@@H]2O[C@H](C)C[C@H](N(C)C)[C@H]2O)[C@@](C)(OCc2ccccc2)C[C@@H](C)C(=O)[C@H](C)[C@@H](O)[C@]1(C)O
A) 0.06

Q) # repeat for CC[C@H]1OC(=O)[C@H](C)[C@@H](O[C@H]2C[C@@](C)(OC)[C@@H](O)[C@H](C)O2)[C@H](C)[C@@H](O[C@@H]2O[C@H](C)C[C@H](N(C)C)[C@H]2O)[C@@](C)(OC/C=C/c2cnc3ccccc3c2)C[C@@H](C)C(=O)[C@H](C)[C@@H](O)[C@]1(C)O
A) 0.06

---

test system: Streptococcus pyogenes; experiment: In vitro minimum inhibitory concentration against Streptococcus pyogenes EES61 using standard agar dilution method; format: functional
MIC values, listed per item
Quick reminder: number only, in µg/mL, skip the unit.

>  <compound-smiles>
CC[C@H]1OC(=O)[C@H](C)[C@@H](O[C@H]2C[C@@](C)(OC)[C@@H](O)[C@H](C)O2)[C@H](C)[C@@H](O[C@@H]2O[C@H](C)C[C@H](N(C)C)[C@H]2O)[C@@](C)(OCc2ccc(F)cc2)C[C@@H](C)C(=O)[C@H](C)[C@@H](O)[C@]1(C)O

>  <unit-symbol>
µg/mL

>  <number>
1

$$$$
>  <compound-smiles>
CC[C@H]1OC(=O)[C@H](C)[C@@H](O[C@H]2C[C@@](C)(OC)[C@@H](O)[C@H](C)O2)[C@H](C)[C@@H](O[C@@H]2O[C@H](C)C[C@H](N(C)C)[C@H]2O)[C@@](C)(OC/C=N/Nc2ccccn2)C[C@@H](C)C(=O)[C@H](C)[C@@H](O)[C@]1(C)O

>  <unit-symbol>
µg/mL

>  <number>
0.125

$$$$

Consider now this further molecule.
Q) State its MIC on Streptococcus pyogenes: CC[C@H]1OC(=O)[C@H](C)[C@@H](O[C@H]2C[C@@](C)(OC)[C@@H](O)[C@H](C)O2)[C@H](C)[C@@H](O[C@@H]2O[C@H](C)C[C@H](N(C)C)[C@H]2O)[C@@](C)(OC/C=N/O)C[C@@H](C)C(=O)[C@H](C)[C@@H](O)[C@]1(C)O
A) 0.015
